testProtocol: SUPPLEMENTARY: Lyophilisation Solubility Assay (LYSA)
Assay type: physicochemical
conditionLabel: read-out: Kinetic_solubility
Record form. Attribute: log10(solubility kinetic). Fill in for each entry.
Short version: log10 scale, solubility kinetic, µg/mL.

Input: Any idea what its log10(solubility kinetic) is? The molecule is `COc1ccc(Cl)cc1S(=O)(=O)N1CCOc2ccc(C(=O)Nc3ncc(CC(=O)O)s3)cc21`
Output: 1.49

Input: Any idea what its log10(solubility kinetic) is? The molecule is `COc1ccc(Cl)cc1S(=O)(=O)N1CCOc2c(F)cc(C(=O)Nc3ccc(CC(=O)O)cc3)cc21`
Output: 2.75

Input: Any idea what its log10(solubility kinetic) is? The molecule is `COc1ccc(Cl)cc1CN1C(=O)OC(C)(C)c2ccc(C(=O)Nc3ccc(C(=O)O)cc3)cc21`
Output: 0.48

Input: Any idea what its log10(solubility kinetic) is? The molecule is CN(CCOc1ccc(CC2SC(=O)NC2=O)cc1)c1ccccn1 (stereo unspecified)
Output: 1.96

Input: Any idea what its log10(solubility kinetic) is? The molecule is `CC(=O)Nc1cccc(-c2n[nH]c([C@H]3CCCCN3C(=O)COc3ccccc3)n2)c1`
Output: 2.13

Input: Any idea what its log10(solubility kinetic) is? The molecule is `COc1ccc(Cl)cc1S(=O)(=O)N1CCOc2c(F)cc(C(=O)Nc3ccc(C(=O)O)c(F)c3)cc21`
Output: 0.85

Input: Any idea what its log10(solubility kinetic) is? The molecule is `CCN(CC)C(=O)c1nc([C@H]2CCCCN2C(=O)COc2ccccc2)no1`
Output: 2.16

Input: Any idea what its log10(solubility kinetic) is? The molecule is `O=C(COc1ccccc1)N1CCCC[C@@H]1c1nc(-c2ccc3nccn3c2)no1`
Output: 1.23

Input: Any idea what its log10(solubility kinetic) is? The molecule is `Cc1cc(-c2nc([C@H]3CCCCN3C(=O)COc3ccccc3)no2)n(C)n1`
Output: 1.74

Input: Any idea what its log10(solubility kinetic) is? The molecule is `O=C(O)c1ccc(NC(=O)c2ccc(NS(=O)(=O)c3cc(Cl)cc(Cl)c3)s2)cc1`
Output: 2.58

Input: Any idea what its log10(solubility kinetic) is? The molecule is `COC[C@@H]1CCN(NC(=O)c2cccc(-c3n[nH]c([C@H]4CCCCN4C(=O)COc4ccccc4)n3)c2)C1`
Output: 2.36

Input: Any idea what its log10(solubility kinetic) is? The molecule is COc1ccc(Cl)cc1S(=O)(=O)N1CC[S+]([O-])c2ccc(C(=O)Nc3ccc(C(=O)O)cc3)cc21 (stereo unspecified)
Output: 1.53

Input: Any idea what its log10(solubility kinetic) is? The molecule is `CCC(=O)Nc1cccc(-c2n[nH]c([C@H]3CCCCN3C(=O)COc3ccccc3)n2)c1`
Output: 1.75

Input: Any idea what its log10(solubility kinetic) is? The molecule is `COc1ccc(Cl)cc1CN1C(=O)OC(C)(C)c2ccc(C(=O)Nc3nc(CC(=O)O)cs3)cc21`
Output: 2.18

Input: Any idea what its log10(solubility kinetic) is? The molecule is `O=C(Nc1ccc(C(=O)O)c(F)c1)c1ccc2c(c1)N(S(=O)(=O)c1cccc(Cl)c1)CCO2`
Output: 0.60

Input: Any idea what its log10(solubility kinetic) is? The molecule is `COc1ccc(Cl)cc1S(=O)(=O)N1CCc2c(C)cc(C(=O)Nc3ccc(C(=O)O)c(F)c3)cc21`
Output: 1.78

Input: Any idea what its log10(solubility kinetic) is? The molecule is `Cc1sc([C@H]2CCCCN2C(=O)COc2ccccc2)nc1-c1cccc(C(=O)O)c1`
Output: 2.60

Input: Any idea what its log10(solubility kinetic) is? The molecule is `CC(=O)NCc1cccc(-c2n[nH]c([C@H]3CCCCN3C(=O)COc3ccccc3)n2)c1`
Output: 2.47

Input: Any idea what its log10(solubility kinetic) is? The molecule is `Cc1cc(-c2nc([C@H]3CCCCN3C(=O)COc3ccccc3)no2)no1`
Output: 1.59

Input: Any idea what its log10(solubility kinetic) is? The molecule is `COc1ccc(Cl)cc1CN1C(=O)CS(=O)(=O)c2ccc(C(=O)Nc3nc(CC(=O)O)cs3)cc21`
Output: 2.62

Input: Any idea what its log10(solubility kinetic) is? The molecule is `N#Cc1ccc(-c2nc([C@H]3CCCCN3C(=O)COc3ccccc3)no2)cn1`
Output: 1.52
